measurement-target: Hemagglutinin of influenza A/Japan/305/57 (H2N2), on inactivated whole virions (Influenza A virus A/Japan/305/1957 …, UniProt P03451 16-562)
protocol-details: ELISA, B cell culture supernatant on inactivated whole virions
# OD450 values compiled below
Express it in OD450; write the number only.

Study these solved cases before continuing.
TCN-545 (5082_I15) (antibody, V domains shown) VH: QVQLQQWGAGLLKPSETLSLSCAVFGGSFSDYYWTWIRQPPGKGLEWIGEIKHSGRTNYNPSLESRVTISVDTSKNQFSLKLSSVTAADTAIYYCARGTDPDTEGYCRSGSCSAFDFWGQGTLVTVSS VL: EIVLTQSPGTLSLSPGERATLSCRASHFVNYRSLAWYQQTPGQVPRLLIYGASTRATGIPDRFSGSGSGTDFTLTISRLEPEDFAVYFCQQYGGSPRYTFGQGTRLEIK = 0.06
TCN-527 (5086_C06) (antibody, V domains shown) VH: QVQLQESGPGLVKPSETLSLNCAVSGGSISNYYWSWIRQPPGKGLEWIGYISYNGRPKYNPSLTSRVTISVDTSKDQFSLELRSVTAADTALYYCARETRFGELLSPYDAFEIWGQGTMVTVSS VL: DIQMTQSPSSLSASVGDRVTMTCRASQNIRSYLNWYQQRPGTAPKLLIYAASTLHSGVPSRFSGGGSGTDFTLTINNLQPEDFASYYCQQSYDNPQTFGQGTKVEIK = 1.48

# ---- query binder ----
In: Recorded OD450 of TCN-528 (5087_P17) (antibody, V domains shown) VH: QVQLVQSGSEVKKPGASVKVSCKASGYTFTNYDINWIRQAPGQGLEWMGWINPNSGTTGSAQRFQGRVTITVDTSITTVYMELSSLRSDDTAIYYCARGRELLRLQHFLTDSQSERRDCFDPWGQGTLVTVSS VL: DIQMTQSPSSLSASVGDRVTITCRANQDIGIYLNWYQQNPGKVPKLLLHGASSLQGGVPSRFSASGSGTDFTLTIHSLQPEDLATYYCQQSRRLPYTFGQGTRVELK , please.
Out: 2.82

Reference source for all entries: patent US20120207760A1
